assay: Elimination half life in healthy Homo sapiens (human); format: ADME, organism-based; conditions: in vivo, read-out: beta t1/2 (converted)
experimental-readout: half-life (h)
# output: bare number, implied unit h

In: Answer with reported half-life of COc1cc2c(c(OC)c1OC)-c1ccc(OC)c(=O)cc1[C@@H](NC(C)=O)CC2 [COLCHICINE]
Out: 14

* * *

assay: Oral bioavailability in healthy Homo sapiens (human) at 1 mg; assay type: ADME, organism-based; settings: in vivo
experimental-readout: bioavailability (%)
The reply should contain only the number, in %.

In: Quick one: give measured bioavailability for COc1cc2c(c(OC)c1OC)-c1ccc(OC)c(=O)cc1[C@@H](NC(C)=O)CC2
Out: 45
